I'd be grateful if you could share measured Ratio CC50/IC50 for these entries.
- Experiment description: Selectivity index, ratio of CC50 for human HepG2(2.2.15) cells to IC50 for HBV by viral DNA replication detection assay
- Assay type: functional

Take a look at these entries with their results.
>>> endpoint_value("CC1(C)[C@@H](O)CC[C@]2(C)[C@H]3C(=O)C=C4[C@@H]5C[C@@](C)(C(=O)OCc6ccc(C(F)(F)F)cc6)CC[C@]5(C)CC[C@@]4(C)[C@]3(C)CC[C@@H]12")
">255.9"
>>> endpoint_value("CC1(C)[C@@H](O)CC[C@]2(C)[C@H]3C(=O)C=C4[C@@H]5C[C@@](C)(C(=O)OCc6cccc(Cl)c6)CC[C@]5(C)CC[C@@]4(C)[C@]3(C)CC[C@@H]12")
">3.5"
>>> endpoint_value("CCOC(=O)COC(=O)[C@@]1(C)CC[C@]2(C)CC[C@]3(C)C(=CC(=O)[C@@H]4[C@@]5(C)CC[C@H](O)C(C)(C)[C@@H]5CC[C@]43C)[C@@H]2C1")
">8.7"

Query (compound): CC1(C)[C@@H](O)CC[C@]2(C)[C@H]3C(=O)C=C4[C@@H]5C[C@@](C)(C(=O)OCc6ccc([N+](=O)[O-])cc6)CC[C@]5(C)CC[C@@]4(C)[C@]3(C)CC[C@@H]12 ; field requested: Ratio CC50/IC50
>149.2

###

- Experiment description: Cytotoxicity against human HepG2(2.2.15) cells
- Assay type: cell-based
Test readout: CC50

# return CC50 for each item in the list
1. CCCCCCCCOC(=O)[C@@]1(C)CC[C@]2(C)CC[C@]3(C)C(=CC(=O)[C@@H]4[C@@]5(C)CC[C@H](O)C(C)(C)[C@@H]5CC[C@]43C)[C@@H]2C1
2. CC1(C)[C@@H](O)CC[C@]2(C)[C@H]3CC=C4[C@@H]5C[C@@](C)(C(=O)OCc6ccc(C(F)(F)F)cc6)CC[C@]5(C)CC[C@@]4(C)[C@]3(C)CC[C@@H]12
3. CC1(C)[C@@H](O)CC[C@]2(C)[C@H]3C(=O)C=C4[C@@H]5C[C@@](C)(C(=O)OCc6cccc(F)c6)CC[C@]5(C)CC[C@@]4(C)[C@]3(C)CC[C@@H]12
4. CCOC(=O)COC(=O)[C@@]1(C)CC[C@]2(C)CC[C@]3(C)C(=CC(=O)[C@@H]4[C@@]5(C)CC[C@H](O)C(C)(C)[C@@H]5CC[C@]43C)[C@@H]2C1
5. CC1(C)[C@@H](O)CC[C@]2(C)[C@H]3C(=O)C=C4[C@@H]5C[C@@](C)(C(=O)OCc6cccc7cccnc67)CC[C@]5(C)CC[C@@]4(C)[C@]3(C)CC[C@@H]12
6. CCOC(=O)CCCOC(=O)[C@@]1(C)CC[C@]2(C)CC[C@]3(C)C(=CC[C@@H]4[C@@]5(C)CC[C@H](OC(=O)/C=C/c6cc(OC)c(OC)c(OC)c6)C(C)(C)[C@@H]5CC[C@]43C)[C@@H]2C1

["> 1450 µM", "> 1500 µM", "> 1310 µM", "> 1200 µM", "> 1700 µM", "> 1230 µM"]

###

- Experiment description: Selectivity index, ratio of CC50 for human HepG2(2.2.15) cells to IC50 for HBV by viral DNA replication detection assay
- Format: functional
Test readout: Ratio CC50/IC50
Numbers only.

>>> endpoint_value("CC1(C)[C@@H](O)CC[C@]2(C)[C@H]3C(=O)C=C4[C@@H]5C[C@@](C)(C(=O)OCc6ccccc6)CC[C@]5(C)CC[C@@]4(C)[C@]3(C)CC[C@@H]12")
13.1
>>> endpoint_value("CC1(C)[C@@H](O)CC[C@]2(C)[C@H]3C(=O)C=C4[C@@H]5C[C@@](C)(C(=O)OCc6ccc(-n7cccn7)cc6)CC[C@]5(C)CC[C@@]4(C)[C@]3(C)CC[C@@H]12")
83.6

Okay, next one:
Query (compound): CC1(C)[C@@H](O)CC[C@]2(C)[C@H]3C(=O)C=C4[C@@H]5C[C@@](C)(C(=O)OCc6cccnc6)CC[C@]5(C)CC[C@@]4(C)[C@]3(C)CC[C@@H]12 ; field requested: Ratio CC50/IC50
1.9
